Entry source: ChEMBL document CHEMBL1201861

In this section we review reported pIC50 values for a set of molecules.
tested on: TK-10; test: cells; type: functional, cell-based, Homo sapiens; settings: Homo sapiens, TK-10;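 further: growth inhibition of TK-10 cells, read out in a cell viability assay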
Description: SANGER: Inhibition of human TK10 cell growth in a cell viability assay.
pIC50: −log10 of the molar value.

Answered cases to consult:
- MOLECULE: "Cn1cnc2c(F)c(Nc3ccc(Br)cc3Cl)c(C(=O)NOCCO)cc21 [SELUMETINIB]"
  pIC50: "< 5.40"
- MOLECULE: "CC(=O)O[C@H]1C(=O)[C@@]2(C)[C@H]([C@H](OC(=O)c3ccccc3)[C@]3(O)C[C@H](OC(=O)[C@H](O)[C@@H](NC(=O)c4ccccc4)c4ccccc4)C(C)=C1C3(C)C)[C@]1(OC(C)=O)CO[C@@H]1C[C@@H]2O [PACLITAXEL]"
  pIC50: 7.47
- MOLECULE: "N[C@@H](CSC(c1ccccc1)(c1ccccc1)c1ccccc1)C(=O)O [S-TRITYL-L-CYSTEINE]"
  pIC50: "< 5.29"
- MOLECULE: "COc1cc(-c2nn([C@H]3CC[C@H](N4CCN(C(C)=O)CC4)CC3)c3ncnc(N)c23)ccc1NC(=O)c1cc2ccccc2n1C"
  pIC50: 6.22
- MOLECULE: "Cc1cc([N+](=O)[O-])ccc1NS(=O)(=O)c1cc(Cl)ccc1Cl"
  pIC50: 4.99
- MOLECULE: "CN(C)C(=N)NC(=N)N [METFORMIN]"
  pIC50: "< 1.70"
- MOLECULE: "C=C(c1ccc(C(=O)O)cc1)c1cc2c(cc1C)C(C)(C)CCC2(C)C [BEXAROTENE]"
  pIC50: "< 5.10"
- MOLECULE: "N#Cc1c(O)c2c(-c3ccc(-c4ccccc4O)cc3)csc2[nH]c1=O"
  pIC50: "< 5.99"

[in] # get_value(readout='pIC50', item= CCN(CC)CCCCNc1ncc2cc(-c3cc(OC)cc(OC)c3)c(NC(=O)NC(C)(C)C)nc2n1 [PD-173074] )
[out] < 5.70

----------
test system: PANC-03-27; test: cells; format: functional, cell-based, Homo sapiens; conditions: Homo sapiens, PANC-03-27
Description: SANGER: Inhibition of human PANC-03-27 cell growth in a cell viability assay.
This listing pairs compounds with measured IC50.
Kindly answer with a numeric value in nM, unit omitted.

Past entries and their recorded results:
- QUERY SMILES: "Cc1cc([N+](=O)[O-])ccc1NS(=O)(=O)c1cc(Cl)ccc1Cl"
  UNIT TAG: "nM"
  IC50: 6380
- QUERY SMILES: "Nc1ccn([C@@H]2O[C@H](CO)[C@@H](O)C2(F)F)c(=O)n1"
  UNIT TAG: "nM"
  IC50: 3.51

Kindly consider the entry below.
[in] Under PANC-03-27: IC50 value of `CC(C)c1ccccc1Cc1cc(C(=O)Nc2ccc(S(=O)(=O)c3ccccc3C(C)(C)C)cc2)c(O)c(O)c1O` ?
[out] 474

----------
tested on: LS-411N; experiment: cells; format: functional, cell-based, Homo sapiens; conditions: Homo sapiens, LS-411N
pIC50: −log10 of the molar value.
MEASUREMENT LABEL: pIC50

Worked cases, pIC50 given:
- MOLECULE: "CN(C)C(=N)NC(=N)N [METFORMIN]"
  STUDY TARGET: "LS-411N"
  pIC50: 1.98
- MOLECULE: "C#Cc1cccc(Nc2ncnc3cc(OCCOC)c(OCCOC)cc23)c1 [ERLOTINIB]"
  STUDY TARGET: "LS-411N"
  pIC50: "< 5.70"
- MOLECULE: "COc1cc(-c2nn([C@H]3CC[C@H](N4CCN(C(C)=O)CC4)CC3)c3ncnc(N)c23)ccc1NC(=O)c1cc2ccccc2n1C"
  STUDY TARGET: "LS-411N"
  pIC50: "< 5.29"

[in] Bench note: what pIC50 did CCN(CC)CCNC(=O)c1c(C)[nH]c(/C=C2\C(=O)Nc3ccc(F)cc32)c1C [SUNITINIB] show?
[out] < 5.10

[in] Looking for the measured pIC50 of `COc1cc2c(Nc3ccc(NC(=O)c4ccccc4)cc3)ncnc2cc1OCCCN1CCOCC1` , can you help?
[out] < 5.40

[in] Please look up its pIC50: `N#Cc1c(O)c2c(-c3ccc(-c4ccccc4O)cc3)csc2[nH]c1=O`
[out] < 5.99

[in] Fill in the blank: the reported pIC50 of Cn1cnc2c(F)c(Nc3ccc(Br)cc3Cl)c(C(=O)NOCCO)cc21 [SELUMETINIB] is ____.
[out] < 5.40

[in] For the molecule shown here, Nc1ccn([C@@H]2O[C@H](CO)[C@@H](O)C2(F)F)c(=O)n1 [GEMCITABINE] , give the reported pIC50.
[out] 7.52

[in] Which pIC50 is reported for this molecule? `CC(C)c1ccccc1Cc1cc(C(=O)Nc2ccc(S(=O)(=O)c3ccccc3C(C)(C)C)cc2)c(O)c(O)c1O`
[out] 5.91

----------
tested on: SW-620; assay: cells; assay type: functional, cell-based, Homo sapiens; details: Homo sapiens, SW-620;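 further: growth inhibition of human SW-620 cells, measured by a cell viability assay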
Description: SANGER: Inhibition of human SW620 cell growth in a cell viability assay.
pIC50: −log10 of the molar value.
Listing of recorded pIC50 by entry.

Answered cases to consult:
- COMPOUND: "CC1(C)CNc2cc(NC(=O)c3cccnc3NCc3ccncc3)ccc21"
  STUDY TARGET: "SW-620"
  MEASUREMENT LABEL: "pIC50"
  RESULT VALUE: "< 5.70"
- COMPOUND: "N#Cc1c(O)c2c(-c3ccc(-c4ccccc4O)cc3)csc2[nH]c1=O"
  STUDY TARGET: "SW-620"
  MEASUREMENT LABEL: "pIC50"
  RESULT VALUE: "< 5.99"
- COMPOUND: "CCC/C=C/C=C/C(=O)O[C@H]1/C(=C/C(=O)OC)C[C@H]2C[C@H]([C@@H](C)O)OC(=O)C[C@H](O)C[C@@H]3C[C@H](OC(C)=O)C(C)(C)[C@](O)(C[C@@H]4C/C(=C/C(=O)OC)C[C@H](/C=C/C(C)(C)[C@]1(O)O2)O4)O3"
  STUDY TARGET: "SW-620"
  MEASUREMENT LABEL: "pIC50"
  RESULT VALUE: "< 8.10"

[in] Query (compound): Nc1cccc2c1CN(C1CCC(=O)NC1=O)C2=O (configuration not stated) [LENALIDOMIDE] ; field requested: pIC50
[out] < 5.30

[in] I'd like to know its pIC50. The compound in question is `CS(=O)(=O)c1ccc(C(=O)Nc2ccc(Cl)c(-c3ccccn3)c2)c(Cl)c1`
[out] < 5.00

[in] Sample `CCN(CC)CCCCNc1ncc2cc(-c3cc(OC)cc(OC)c3)c(NC(=O)NC(C)(C)C)nc2n1` — what was its pIC50?
[out] < 5.70

[in] Look up pIC50 for this compound: `Nc1ccn([C@@H]2O[C@H](CO)[C@@H](O)C2(F)F)c(=O)n1`
[out] 8.87

----------
IC50 values, listed per item
test system: NCI-H1304; experiment: cells; assay type: functional, cell-based, Homo sapiens; conditions: Homo sapiens, NCI-H1304;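 further: growth inhibition of the cancer cell line, measured in a cell viability assay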
Description: SANGER: Inhibition of human NCI-H1304 cell growth in a cell viability assay.

Worked examples follow.
- QUERY SMILES: "COc1cccc2c1C(=O)c1c(O)c3c(c(O)c1C2=O)C[C@@](O)(C(=O)CO)C[C@@H]3O[C@H]1C[C@H](N)[C@H](O)[C@H](C)O1"
  IC50: "0.321 µM"
- QUERY SMILES: "COc1cc(-c2nn([C@H]3CC[C@H](N4CCN(C(C)=O)CC4)CC3)c3ncnc(N)c23)ccc1NC(=O)c1cc2ccccc2n1C"
  IC50: "> 5.12 µM"
- QUERY SMILES: "O=C(O)c1ccc(-c2c[nH]c3ncc(-c4ccccc4)cc23)cc1C1CCCC1"
  IC50: "> 16 µM"

Please examine the following record next.
[in] State the recorded IC50 for this entry: `CCN(CC)CCNC(=O)c1c(C)[nH]c(/C=C2\C(=O)Nc3ccc(F)cc32)c1C`
[out] > 8 µM

----------
system: MKN-45; assay: cells; format: functional, cell-based, Homo sapiens; conditions: Homo sapiens, MKN-45;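 further: growth inhibition of human MKN-45 cells, measured with a cell viability assay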
Description: SANGER: Inhibition of human MKN45 cell growth in a cell viability assay.
Let's look at some compounds and their measured pIC50.
Scale explanation: pIC50 corresponds to minus log10 of a concentration expressed in moles per litre.

- QUERY SMILES: "Cc1cc([N+](=O)[O-])ccc1NS(=O)(=O)c1cc(Cl)ccc1Cl"
  pIC50: 5.67

[in] Fill in the blank: the reported pIC50 of `COc1cccc2c1C(=O)c1c(O)c3c(c(O)c1C2=O)C[C@@](O)(C(=O)CO)C[C@@H]3O[C@H]1C[C@H](N)[C@H](O)[C@H](C)O1` is ____.
[out] 7.09

----------
test system: SW756; assay: cells; assay type: functional, cell-based, Homo sapiens; details: Homo sapiens, SW756;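 further: growth inhibition of human SW756 cells, read out with a cell viability assay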
Description: SANGER: Inhibition of human SW756 cell growth in a cell viability assay.
Counter-ions that a name gives are not always drawn.
# IC50 per record follows
Respond numerically; units are nM and should not be typed.

- COMPOUND: "COC1=CC(c2cc3ccccc3[nH]2)=N/C1=C\\c1[nH]c(C)cc1C [OBATOCLAX MESYLATE]"
  STUDY TARGET: "SW756"
  IC50 [nM]: 38.2

Switching to the query record.
[in] Report IC50 for `Cc1cc([N+](=O)[O-])ccc1NS(=O)(=O)c1cc(Cl)ccc1Cl` please.
[out] 2970
